Tested target: NLRP3 inflammasome (Homo sapiens)
Measurement description: THP-1 ASC-GFP speck assay
Type: cell-based
Design: host or cells: THP-1 ASC-GFP cells, PMA-differentiated, LPS-primed, nigericin-stimulated
Setup conditions: THP-1 ASC-GFP cells, PMA differentiated, LPS primed, 10 μM nigericin; read-out: THP1 ASC Speck IC50
pIC50: −log10 of the molar value.
Outcome measure: pIC50

1 = COC1COc2c(S(N)(=O)=NC(=O)Nc3c4c(cc5c3C(C)CC5)CCC4)cnn2C1 (single isomer, unassigned) [Example 149]
2 = COCCNC1COc2c(S(N)(=O)=NC(=O)Nc3c4c(cc5c3CCC5)CCC4)cnn2C1 (single isomer, unassigned) [Example 54]
3 = CC1CCc2cc3c(c(NC(=O)N=S(N)(=O)c4cnn5c4OCC(C)(C)C5)c21)CCC3 (single isomer, unassigned) [Example 136]
4 = CNC1COc2c(S(N)(=O)=NC(=O)Nc3c(C(C)C)cc(OC)nc3C(C)C)cnn2C1 (single isomer, unassigned) [Example 51]
Q. Which order do these fall in by pIC50? Give them lowest to highest. Answer format: the labels, in the requested order.
A. 4, 3, 1, 2
(4: 4.77, 3: 5.42, 1: 6.19, 2: 6.44)

A = COc1cc(C(C)C)c(NC(=O)N=S(N)(=O)c2cnn3c2OCC(C)(C)C3)c(C(C)C)n1 (single isomer, unassigned) [Example 76]
B = COC1CN(C2COc3c(S(N)(=O)=NC(=O)Nc4c5c(cc6c4CCC6)CCC5)cnn3C2)C1 (single isomer, unassigned)
C = NS(=O)(=NC(=O)Nc1c2c(cc3c1CCC3)CCC2)c1cnn2c1COCCC2 (single isomer, unassigned) [Example 62]
Q. Order by pIC50, ascending. Answer format: the labels, in the requested order.
A. A, B, C

* * *

Tested target: NLRP3 inflammasome (Homo sapiens)
Measurement description: THP-1 ASC-GFP speck assay
Format: cell-based
Set-up: host or cells: THP-1 ASC-GFP cells, PMA-differentiated, LPS-primed, nigericin-stimulated
Setup conditions: THP-1 ASC-GFP cells, PMA differentiated, LPS primed, 10 μM nigericin; read-out: THP1 ASC Speck IC50
Outcome measure: IC50 (nM)

Known IC50 results, listed for orientation:
NS(=O)(=NC(=O)Nc1c2c(c(F)c3c1CCC3)CCC2)c1cnn2c1OC[C@@H](NCCF)C2 (single isomer, unassigned) [Example 47] :: 1700
COC1COc2c(S(N)(=O)=NC(=O)Nc3c4c(cc5c3C(C)CC5)CCC4)cnn2C1 (single isomer, unassigned) [Example 148] :: 710
COCCNC1COc2c(S(N)(=O)=NC(=O)Nc3c4c(cc5c3CCC5)CCC4)cnn2C1 (single isomer, unassigned) [Example 55] :: 7200

P = COc1cc(-c2ccc3c(c2NC(=O)N=S(N)(=O)c2cnn4c2OCCC4)CCO3)ccn1 (single isomer, unassigned) [Example 158]
Q = CC(C)c1nn(CC2CC2)c(C(C)C)c1NC(=O)N=S(N)(=O)c1cnn2c1OCCC2 (single isomer, unassigned) [Example 114]
Q. From the items above, decide which of P and Q has the lower IC50 reading. Answer with the label corresponding to your selection.
A. P

1 = CNC1CCn2ncc(S(N)(=O)=NC(=O)Nc3c4c(cc5c3CCC5)CCC4)c2OC1 (single isomer, unassigned) [Example 132]
2 = NS(=O)(=NC(=O)Nc1c2c(cc3c1CCC3)CCC2)c1cnn2c1OCC2 (single isomer, unassigned) [Example 124]
3 = CC1CCc2cc3c(c(NC(=O)N=S(N)(=O)c4cnn5c4OCC5)c21)CCC3 (single isomer, unassigned) [Example 146]
4 = CN(C)[C@@H]1COc2c([S@](N)(=O)=NC(=O)Nc3c4c(c(F)c5c3CCC5)CCC4)cnn2C1 (single isomer, unassigned) [Example 44]
Q. Thanks in advance: please rank these 4 entries by IC50, highest to lowest. Answer format: the labels, in the requested order.
A. 3, 1, 4, 2

a = NS(=O)(=NC(=O)Nc1c2c(cc3c1CCC3)CCC2)c1cnn2c1OCCC2 (single isomer, unassigned) [Example 14]
b = COC1CCOc2c(S(N)(=O)=NC(=O)Nc3c4c(cc5c3CCC5)CCC4)cnn2C1 (single isomer, unassigned) [Example 91]
c = CNC1COc2c(S(N)(=O)=NC(=O)Nc3c(C(C)C)cc(F)cc3C(C)C)cnn2C1 (single isomer, unassigned) [Example 28]
Q. Order by IC50, ascending. Answer format: the labels, in the requested order.
A. b, a, c
(b: 490 nM, a: 1200 nM, c: 4400 nM)

* * *

Tested target: NLRP3 inflammasome (Homo sapiens)
Measurement description: THP-1 ASC-GFP speck assay
Assay type: cell-based
Set-up: host or cells: THP-1 ASC-GFP cells, PMA-differentiated, LPS-primed, nigericin-stimulated
Setup conditions: THP-1 ASC-GFP cells, PMA differentiated, LPS primed, 10 μM nigericin; read-out: THP1 ASC Speck IC50
pIC50: −log10 of the molar value.
Outcome measure: pIC50

1 = COC1CN(C2COc3c(S(N)(=O)=NC(=O)Nc4c5c(c(F)c6c4CCC6)CCC5)cnn3C2)C1 (single isomer, unassigned) [Example 43]
2 = COc1cc(-c2cc(F)cc(C(C)C)c2NC(=O)N=S(N)(=O)c2cnn3c2OCCC3)ccn1 (single isomer, unassigned) [Example 120]
Q. From the items above, decide which of 1 and 2 has the lower pIC50 reading. Answer with the label corresponding to your selection.
A. 1
(1: 5.72, 2: 5.92)

* * *

Tested target: NLRP3 inflammasome (Homo sapiens)
Measurement description: NLRP3 inflammasome activation assay in PBMCs, IL-1β release (ELISA / HTRF)
Assay type: cell-based
Set-up: were freshly isolated from human peripheral blood from healthy donors; StemCells Technologies; host or cells: primary human PBMCs, LPS-primed, nigericin-stimulated
Setup conditions: LPS primed, 10 μM nigericin, read-out: PBMC IL-1β IC50
Outcome measure: IC50 (nM)

CNC1COc2c(S(N)(=O)=NC(=O)Nc3c4c(c(F)c5c3CCC5)CCC4)cnn2C1 (single isomer, unassigned) [Example 40] :: 4.9

A = NS(=O)(=NC(=O)Nc1c2c(c(F)c3c1CCC3)CCC2)c1cnn2c1OCC(NCCF)C2 (single isomer, unassigned)
B = NS(=O)(=NC(=O)Nc1c2c(c(F)c3c1CCC3)CCC2)c1cnn2c1OCC2 (racemic)
C = COC1COc2c(S(N)(=O)=NC(=O)Nc3c(C(C)C)cc(F)cc3C(C)C)cnn2C1 (single isomer, unassigned) [Example 24]
D = COC1COc2c(S(N)(=O)=NC(=O)Nc3c4c(cc5c3CCC5)CCC4)cnn2C1 (single isomer, unassigned) [Example 19]
Q. Order by IC50, ascending. Answer format: the labels, in the requested order.
A. A, B, C, D

* * *

Tested target: NLRP3 inflammasome (Homo sapiens, UniProt Q96P20)
Sequence (Q96P20 whole entry): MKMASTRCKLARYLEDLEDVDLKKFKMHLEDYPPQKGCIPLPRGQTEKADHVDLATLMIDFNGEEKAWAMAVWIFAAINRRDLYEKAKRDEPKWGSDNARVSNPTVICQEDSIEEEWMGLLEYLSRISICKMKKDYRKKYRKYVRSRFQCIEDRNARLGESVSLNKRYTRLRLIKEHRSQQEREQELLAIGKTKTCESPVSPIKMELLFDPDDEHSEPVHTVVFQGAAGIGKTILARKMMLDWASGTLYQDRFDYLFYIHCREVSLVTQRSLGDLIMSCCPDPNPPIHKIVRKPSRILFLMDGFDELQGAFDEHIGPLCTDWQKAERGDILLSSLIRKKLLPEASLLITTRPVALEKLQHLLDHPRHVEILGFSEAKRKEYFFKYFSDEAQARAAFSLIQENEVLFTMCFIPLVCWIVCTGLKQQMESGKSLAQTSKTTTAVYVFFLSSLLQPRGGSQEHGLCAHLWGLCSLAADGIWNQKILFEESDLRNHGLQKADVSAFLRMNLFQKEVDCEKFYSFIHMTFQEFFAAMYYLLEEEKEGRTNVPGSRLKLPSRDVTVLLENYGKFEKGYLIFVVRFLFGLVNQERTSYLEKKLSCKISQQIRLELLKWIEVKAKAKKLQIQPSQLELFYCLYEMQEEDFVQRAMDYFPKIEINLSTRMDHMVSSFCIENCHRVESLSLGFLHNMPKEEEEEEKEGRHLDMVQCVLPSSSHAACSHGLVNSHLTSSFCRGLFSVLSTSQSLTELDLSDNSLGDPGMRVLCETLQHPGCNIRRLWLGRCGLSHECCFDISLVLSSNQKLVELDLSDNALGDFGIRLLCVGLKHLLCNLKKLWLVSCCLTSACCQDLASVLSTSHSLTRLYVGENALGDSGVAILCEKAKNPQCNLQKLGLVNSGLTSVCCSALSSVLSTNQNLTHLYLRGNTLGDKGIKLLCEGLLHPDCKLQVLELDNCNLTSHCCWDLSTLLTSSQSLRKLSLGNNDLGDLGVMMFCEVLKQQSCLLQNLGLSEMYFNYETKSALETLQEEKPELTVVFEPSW
Measurement description: NLRP3 inflammasome activation assay in PBMCs, IL-1β release (ELISA / HTRF)
Format: cell-based
Set-up: were freshly isolated from human peripheral blood from healthy donors; StemCells Technologies; host or cells: primary human PBMCs, LPS-primed, nigericin-stimulated
Setup conditions: LPS primed, 10 μM nigericin, read-out: PBMC IL-1β IC50
pIC50: −log10 of the molar value.
Outcome measure: pIC50

Known pIC50 results, listed for orientation:
COCCNC1COc2c(S(N)(=O)=NC(=O)Nc3c4c(cc5c3CCC5)CCC4)cnn2C1 (single isomer, unassigned) [Example 54] :: 6.48
NS(=O)(=NC(=O)Nc1c2c(c(F)c3c1CCC3)CCC2)c1cnn2c1OCCC2 (single isomer, unassigned) [Example 22] :: 7.02

I = COC1COc2c(S(N)(=O)=NC(=O)Nc3c4c(c(F)c5c3CCC5)CCC4)cnn2C1 (single isomer, unassigned) [Example 31]
II = CN[C@@H]1COc2c(S(N)(=O)=NC(=O)Nc3c(C(C)C)cc(F)cc3C(C)C)cnn2C1 (mixture of isomers)
Q. Task for the reader: decide whether I or II has the larger pIC50. Answer with the label corresponding to your selection.
A. I
(I: 6.82, II: 6.57)

* * *

Tested target: NLRP3 inflammasome (Homo sapiens, UniProt Q96P20)
Measurement description: NLRP3 inflammasome activation assay in PBMCs, IL-1β release (ELISA / HTRF)
Type: cell-based
Set-up: were freshly isolated from human peripheral blood from healthy donors; StemCells Technologies; host or cells: primary human PBMCs, LPS-primed, nigericin-stimulated
Setup conditions: LPS primed, 10 μM nigericin, read-out: PBMC IL-1β IC50
Outcome measure: IC50 (nM)

Known IC50 results, listed for orientation:
CC(C)c1cc(F)cc(C(C)C)c1NC(=O)N=S(N)(=O)c1cnn2c1OCCC2 (single isomer, unassigned) [Example 8] :: 1000
CC(C)c1cc(F)cc(C(C)C)c1NC(=O)N=S(N)(=O)c1cnn2c1OCCC2 (single isomer, unassigned) [Example 7] :: 290
CO[C@@H]1COc2c(S(N)(=O)=NC(=O)Nc3c4c(cc5c3CCC5)CCC4)cnn2C1 (mixture of isomers) [Example 2] :: 24
NS(=O)(=NC(=O)Nc1c2c(cc3c1CCC3)CCC2)c1cnn2c1OCC(NCCF)C2 (single isomer, unassigned) [Example 35] :: 180
NS(=O)(=NC(=O)Nc1c2c(c(F)c3c1CCC3)CCC2)c1cnn2c1OC[C@@H](NCCF)C2 (single isomer, unassigned) [Example 47] :: 330

P = NS(=O)(=NC(=O)Nc1c2c(cc3c1CCC3)CCC2)c1cnn(CC2CC2)c1 (racemic) [Example 10]
Q = NS(=O)(=NC(=O)Nc1c2c(cc3c1CCC3)CCC2)c1cnn2c1OCCC2 (single isomer, unassigned) [Example 13]
R = COC1CN(C2COc3c(S(N)(=O)=NC(=O)Nc4c5c(cc6c4CCC6)CCC5)cnn3C2)C1 (single isomer, unassigned) [Example 39]
S = COC1CN(C2COc3c(S(N)(=O)=NC(=O)Nc4c5c(c(F)c6c4CCC6)CCC5)cnn3C2)C1 (single isomer, unassigned) [Example 42]
Q. Order by IC50, ascending. Answer format: the labels, in the requested order.
A. S, R, Q, P
(S: 5 nM, R: 19 nM, Q: 35 nM, P: 350 nM)

A = COC1CN(C2COc3c(S(N)(=O)=NC(=O)Nc4c5c(c(F)c6c4CCC6)CCC5)cnn3C2)C1 (single isomer, unassigned) [Example 43]
B = CN[C@@H]1COc2c(S(N)(=O)=NC(=O)Nc3c4c(cc5c3CCC5)CCC4)cnn2C1 (mixture of isomers) [Example 17]
C = CO[C@@H]1COc2c(S(N)(=O)=NC(=O)Nc3c(C(C)C)cc(F)cc3C(C)C)cnn2C1 (mixture of isomers) [Example 15]
D = N[C@@H]1COc2c([S@@](N)(=O)=NC(=O)Nc3c4c(cc5c3CCC5)CCC4)cnn2C1 [Example 59]
E = CC(=O)NS(=O)(=NC(=O)Nc1c2c(c(F)c3c1CCC3)CCC2)c1cnn2c1OCCC2 (single isomer, unassigned) [Example 95]
Q. Thanks in advance: please rank these 5 entries by IC50, highest to lowest. Answer format: the labels, in the requested order.
A. E, A, C, D, B
(E: 2230 nM, A: 430 nM, C: 300 nM, D: 95 nM, B: 19 nM)

A = CO[C@@H]1COc2c(S(N)(=O)=NC(=O)Nc3c4c(c(F)c5c3CCC5)CCC4)cnn2C1 (mixture of isomers) [Example 18]
B = CN(C)C1COc2c(S(N)(=O)=NC(=O)Nc3c4c(cc5c3CCC5)CCC4)cnn2C1 (single isomer, unassigned) [Example 34]
Q. From the items above, decide which of A and B has the lower IC50 reading. Answer with the label corresponding to your selection.
A. B
(B: 6 nM, A: 16 nM)

P = CN(C)[C@@H]1COc2c([S@@](N)(=O)=NC(=O)Nc3c4c(c(F)c5c3CCC5)CCC4)cnn2C1 (single isomer, unassigned) [Example 45]
Q = CC(C)c1cc(F)cc(C(C)C)c1NC(=O)N=S(N)(=O)c1cnn2c1OCCC2 (racemic) [Example 3]
R = COC1COc2c(S(N)(=O)=NC(=O)Nc3c4c(cc5c3CCC5)CCC4)cnn2C1 (single isomer, unassigned) [Example 20]
S = COC1COc2c(S(N)(=O)=NC(=O)Nc3c(C(C)C)cc(F)cc3C(C)C)cnn2C1 (single isomer, unassigned) [Example 23]
T = CC1(C)COc2c(S(N)(=O)=NC(=O)Nc3c4c(cc5c3CCC5)CCC4)cnn2C1 (racemic) [Example 6]
Q. Order by IC50, ascending. Answer format: the labels, in the requested order.
A. P, R, T, Q, S
(P: 0.7 nM, R: 4 nM, T: 14 nM, Q: 410 nM, S: 8820 nM)
